# measurement.notes: refractive index (Na D-line) (dimensionless); xn = mol fraction of the nth substance listed
# run.conditions: 298.15 K; 101 kPa; Liquid; Standard Abbe refractometry; x1 = 0.6
measurement.label: refractive index
Respond numerically, and do not add a unit to the figure.

# compound, refractive index
records = [
    ("C=C[Si](C)(C)O[Si](C)(C)C=C [1,3-diethenyl-1,1,3,3-tetramethyldisiloxane] + Clc1ccccc1", 1.43722),
]

Lab note: measured refractive index of C=C[Si](C)(C)O[Si](C)(C)C=C [1,3-diethenyl-1,1,3,3-tetramethyldisiloxane] + Fc1ccccc1 was 1.42171

Reported refractive index for C=C[Si](C)(C)O[Si](C)(C)C=C [1,3-diethenyl-1,1,3,3-tetramethyldisiloxane] + CCc1ccccc1 was 1.43246

C=C[Si](C)(C)O[Si](C)(C)C=C [1,3-diethenyl-1,1,3,3-tetramethyldisiloxane] + COc1ccccc1 has a reported refractive index of 1.43657

====

# measurement.notes: xn = mol fraction of the nth substance listed
# run.conditions: 288.15 K; 101 kPa; Liquid; Vibrating tube method; x1 = 0.15
mass density values, listed per item
Express it in kg/m3; write the number only.

# compound, unit.symbol, mass density
measured = [
    ("C=C[Si](C)(C)O[Si](C)(C)C=C [1,3-diethenyl-1,1,3,3-tetramethyldisiloxane] + COc1ccccc1", "kg/m3", 953.58),
    ("C=C[Si](C)(C)O[Si](C)(C)C=C [1,3-diethenyl-1,1,3,3-tetramethyldisiloxane] + O=[N+]([O-])c1ccccc1", "kg/m3", 1106.98),
    ("C=C[Si](C)(C)O[Si](C)(C)C=C [1,3-diethenyl-1,1,3,3-tetramethyldisiloxane] + Clc1ccccc1", "kg/m3", 1033.26),
]

Shift focus to the following entry.
Just so you know, measured mass density for C=C[Si](C)(C)O[Si](C)(C)C=C [1,3-diethenyl-1,1,3,3-tetramethyldisiloxane] + Fc1ccccc1 came out at 968.74

====

# refractive index values compiled below
# measurement.notes: refractive index (Na D-line) (dimensionless)
# run.conditions: 293.15 K; 101.33 kPa; Liquid; Standard Abbe refractometry
Respond with the number and no other words.

# structure.string, refractive index
rows = [
    ("CCc1ccccc1", 1.49575),
]

Per the records, this compound ( "Fc1ccccc1" ) has refractive index equal to 1.46571

Lab book: refractive index of "O=[N+]([O-])c1ccccc1" noted as 1.55234

// refractive index lookup, compound = "Clc1ccccc1" , result: 1.52446

# refractive index (compound: "COc1ccccc1" ) is 1.51724

The value of refractive index measured for the compound "C=C[Si](C)(C)O[Si](C)(C)C=C" turned out to be 1.41236

====

# measurement.notes: xn = mol fraction of the nth substance listed
# run.conditions: 293.15 K; 101 kPa; Liquid; Vibrating tube method; x1 = 0.25
± gives the expanded uncertainty stated by the source.
measurement.label: mass density
Provide the measurement as a number trailed by its unit.

Recorded results for 3 compounds are shown here.
# compound, measurement.label, recorded.result
measured = [
    ("C=C[Si](C)(C)O[Si](C)(C)C=C [1,3-diethenyl-1,1,3,3-tetramethyldisiloxane] + Fc1ccccc1", "mass density", "931.8 ± 1 kg/m3"),
    ("C=C[Si](C)(C)O[Si](C)(C)C=C [1,3-diethenyl-1,1,3,3-tetramethyldisiloxane] + Clc1ccccc1", "mass density", "986.55 ± 1 kg/m3"),
    ("C=C[Si](C)(C)O[Si](C)(C)C=C [1,3-diethenyl-1,1,3,3-tetramethyldisiloxane] + CCc1ccccc1", "mass density", "848.52 ± 1 kg/m3"),
]

Documented mass density of C=C[Si](C)(C)O[Si](C)(C)C=C [1,3-diethenyl-1,1,3,3-tetramethyldisiloxane] + O=[N+]([O-])c1ccccc1 : 1047.57 ± 1 kg/m3
